Target: T1, recombinant human domain 1-3His6 of the cation-independent mannose-6-phosphate receptor (human, UniProt P11717 41-467)
T1 construct: Biotinylated (NHS-PEG4-biotin) for BLI; Glycosylated; also called hDom1-3His6; hCI-M6PRD1-D3
Assay: BLI exp 1, dissoc pH 7
Kindly state Kd for each of the entries shown.
Numbers only, in nM.

Hi there! I need Kd for each item below, if you can.
1. anti-CI-M6PR VHH6 (VHH, His6-tagged; made in E. coli) VHH: QVQLQESGGGLVQAGGSLRLSCAVSGSISSIGGMGWFRQAPGKQREFVAVILNNSGMTSYADSVKGRFTISRGNSKNTMYLQMNSLKPEDTAVYYCNYSGYWGQGTQVTVSS
2. anti-CI-M6PR VHH2 (VHH, His6-tagged; made in Pichia pastoris) VHH: QVQLQESGGGLVQPGGSLRLSCVFSGRTFMSYDVGWFRQAPGKERELLSSITSSSSSPYYAESVKGRFAVSRDGAKKTVYLRMNSLEPEDTAVYYCAARENWRNDWQYWGQTQVTVSS

-- reply
1: 2.65; 2: 24.2

Parameters: items (list). Returns: Kd for each item.
1. anti-CI-M6PR VHH5 (VHH, His6-tagged; made in Pichia pastoris, later also in E. coli WK6) VHH: QVQLQESGGGLVQAGGSLKLSCAAAGRTFSRLAMGWFRQAPGKEREFVAAISENGDSIHYSDSVKGRFAVSRDNAKNTVYLQMNSLKPEDTAIYYCAADRAAYYCSGSGCYPSRAPAAASYDYWGQGTQVTVSS
2. anti-CI-M6PR VHH7 (VHH, His6-tagged (Pichia pastoris)) VHH: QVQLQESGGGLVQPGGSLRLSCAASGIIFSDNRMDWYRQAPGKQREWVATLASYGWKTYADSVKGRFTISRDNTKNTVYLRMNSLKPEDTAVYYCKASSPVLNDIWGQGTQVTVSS

-- reply
0.346
8.08
